Target of assay: CYP2D6 (Homo sapiens)
Sequence (P10635 whole entry): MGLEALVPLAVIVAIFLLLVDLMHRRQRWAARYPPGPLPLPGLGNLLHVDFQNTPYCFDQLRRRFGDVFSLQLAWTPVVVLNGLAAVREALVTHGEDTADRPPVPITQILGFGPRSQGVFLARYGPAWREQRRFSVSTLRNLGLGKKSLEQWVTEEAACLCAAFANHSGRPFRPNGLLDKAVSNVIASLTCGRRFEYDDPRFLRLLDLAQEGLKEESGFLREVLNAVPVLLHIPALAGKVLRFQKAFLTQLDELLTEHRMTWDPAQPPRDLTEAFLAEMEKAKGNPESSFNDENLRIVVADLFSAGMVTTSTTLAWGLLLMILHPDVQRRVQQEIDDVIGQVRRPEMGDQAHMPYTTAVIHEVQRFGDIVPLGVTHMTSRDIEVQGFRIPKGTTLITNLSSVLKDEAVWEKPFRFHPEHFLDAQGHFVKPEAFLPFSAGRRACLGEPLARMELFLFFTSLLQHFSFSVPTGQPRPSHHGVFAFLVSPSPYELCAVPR
Assay info: Inhibition of CYP2D6 at 10 uM
Format: ADME
Measure name: inhibition at 10 µM (%)

1) NC(=O)C12CC3CC(C1)C(NC(=O)C1SCCN1S(=O)(=O)c1ccccc1F)C(C3)C2 (stereo in doubt; 8g (E)) | 0
2) Cc1ccc(S(=O)(=O)N2CCSC2C(=O)NC2C3CC4CC2CC(C(N)=O)(C4)C3)cc1 (configuration not stated) | 0

----------
Target of assay: CYP1A2 (Homo sapiens, UniProt P05177)
Sequence (P05177 whole entry): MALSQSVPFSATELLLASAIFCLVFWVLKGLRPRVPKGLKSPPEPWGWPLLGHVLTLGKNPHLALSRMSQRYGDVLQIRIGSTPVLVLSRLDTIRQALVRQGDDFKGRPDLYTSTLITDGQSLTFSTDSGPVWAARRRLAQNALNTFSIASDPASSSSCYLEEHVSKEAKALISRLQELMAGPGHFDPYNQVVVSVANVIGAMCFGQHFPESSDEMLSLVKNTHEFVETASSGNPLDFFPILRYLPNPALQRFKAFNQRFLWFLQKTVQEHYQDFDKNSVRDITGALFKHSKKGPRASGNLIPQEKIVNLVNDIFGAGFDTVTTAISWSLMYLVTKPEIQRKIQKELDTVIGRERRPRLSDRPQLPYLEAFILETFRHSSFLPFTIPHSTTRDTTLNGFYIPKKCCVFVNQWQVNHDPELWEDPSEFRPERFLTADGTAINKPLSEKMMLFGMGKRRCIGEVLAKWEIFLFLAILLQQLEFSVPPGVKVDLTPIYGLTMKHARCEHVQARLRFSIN
Assay info: Inhibition of CYP1A2 at 10 uM
Type: ADME
Measure name: inhibition at 10 µM (%)

1. Cc1ccc(S(=O)(=O)N2CCSC2C(=O)NC2C3CC4CC2CC(C(N)=O)(C4)C3)cc1 (configuration not stated) | 0
2. NC(=O)C12CC3CC(C1)C(NC(=O)C1SCCN1S(=O)(=O)c1ccccc1F)C(C3)C2 (stereo in doubt; 8g (E)) | 0

----------
Target of assay: CYP3A4 (Homo sapiens)
Sequence (P08684 whole entry): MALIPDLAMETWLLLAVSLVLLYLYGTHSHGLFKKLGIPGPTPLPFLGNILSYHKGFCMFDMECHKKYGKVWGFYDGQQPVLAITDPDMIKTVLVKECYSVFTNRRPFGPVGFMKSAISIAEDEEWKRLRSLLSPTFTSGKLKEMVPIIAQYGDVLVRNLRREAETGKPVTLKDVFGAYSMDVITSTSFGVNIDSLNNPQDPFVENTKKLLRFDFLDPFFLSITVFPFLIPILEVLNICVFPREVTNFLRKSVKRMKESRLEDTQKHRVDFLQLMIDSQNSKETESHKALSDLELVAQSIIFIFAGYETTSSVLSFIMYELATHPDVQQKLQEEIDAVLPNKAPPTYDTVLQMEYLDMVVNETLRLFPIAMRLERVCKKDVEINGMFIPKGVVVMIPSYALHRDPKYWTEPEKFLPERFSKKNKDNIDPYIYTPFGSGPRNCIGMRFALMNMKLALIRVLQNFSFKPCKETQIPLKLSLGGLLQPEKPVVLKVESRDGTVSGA
Assay info: Inhibition of CYP3A4 at 10 uM
Type: ADME
Measure name: inhibition at 10 µM (%)

1) NC(=O)C12CC3CC(C1)C(NC(=O)C1SCCN1S(=O)(=O)c1ccccc1F)C(C3)C2 (stereo in doubt; 8g (E)) | 21
2) Cc1ccc(S(=O)(=O)N2CCSC2C(=O)NC2C3CC4CC2CC(C(N)=O)(C4)C3)cc1 (configuration not stated) | 24

----------
Target of assay: 11-beta-hydroxysteroid dehydrogenase 1 (Homo sapiens, UniProt P28845)
Sequence (P28845 whole entry): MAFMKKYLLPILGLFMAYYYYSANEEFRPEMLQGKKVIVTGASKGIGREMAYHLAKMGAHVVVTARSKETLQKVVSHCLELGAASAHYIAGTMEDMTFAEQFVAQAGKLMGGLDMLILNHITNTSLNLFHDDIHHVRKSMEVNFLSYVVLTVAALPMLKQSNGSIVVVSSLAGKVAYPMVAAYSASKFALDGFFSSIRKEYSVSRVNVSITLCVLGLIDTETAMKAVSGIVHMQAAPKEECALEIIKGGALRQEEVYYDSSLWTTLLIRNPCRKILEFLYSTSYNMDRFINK
Assay info: Inhibition of human 11beta-HSD1 expressed in CHO cells after 3 hrs by HTRF cortisol assay
Measure name: IC50 (nM)

(I) NC(=O)C12CC3CC(C1)C(NC(=O)C1SCCN1S(=O)(=O)c1ccccc1F)C(C3)C2 (stereo in doubt; 8g (E))
(II) NC(=O)C12CC3CC(C1)C(NC(=O)[C@@H]1SCCN1S(=O)(=O)c1ccccc1F)C(C3)C2 (stereo in doubt; 8g (S) (Z))
Which record would sort first by descending IC50, I or II ? Select an item and report its label.
II
(II: 38700 nM, I: 3 nM)

(1) NC(=O)C12CC3CC(C1)C(NC(=O)C1SCCN1S(=O)(=O)c1ccccc1F)C(C3)C2 (stereo in doubt; 8g)
(2) Cc1ccc(S(=O)(=O)N2CCSC2C(=O)NC2C3CC4CC2CC(C(N)=O)(C4)C3)cc1 (stereo not given)
(3) NC(=O)C12CC3CC(C1)C(NC(=O)[C@H]1SCCN1S(=O)(=O)c1ccccc1F)C(C3)C2 (stereo in doubt; 8g (R) (E))
Sort the 3 molecules by IC50; largest first, smallest last. Please express your ranking as an ordered list of the labels.
2, 1, 3

(A) NC(=O)C12CC3CC(C1)C(NC(=O)C1SCCN1S(=O)(=O)c1ccccc1F)C(C3)C2 (mixture of isomers)
(B) NC(=O)C12CC3CC(C1)C(NC(=O)C1SCCN1S(=O)(=O)c1ccccc1F)C(C3)C2 (stereo in doubt; 8g (Z))
Between A and B , which one has the lower reported IC50 value? When you have decided, please share the label of that item.
A
(A: 4 nM, B: 7950 nM)

----------
Target of assay: 11-beta-hydroxysteroid dehydrogenase 1 (Mus musculus, UniProt P50172)
Sequence (P50172 whole entry): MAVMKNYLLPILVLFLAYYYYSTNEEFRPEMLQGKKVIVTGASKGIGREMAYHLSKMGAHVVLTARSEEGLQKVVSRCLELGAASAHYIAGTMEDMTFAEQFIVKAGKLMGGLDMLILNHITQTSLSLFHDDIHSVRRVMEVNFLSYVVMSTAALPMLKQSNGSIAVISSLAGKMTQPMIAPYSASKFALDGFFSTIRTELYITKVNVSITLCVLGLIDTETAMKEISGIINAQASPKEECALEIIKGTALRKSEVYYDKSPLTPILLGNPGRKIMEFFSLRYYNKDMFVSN
Assay info: Inhibition of mouse 11beta-HSD1 expressed in CHO cells after 3 hrs by HTRF cortisol assay
Measure name: IC50 (nM)

1) NC(=O)C12CC3CC(C1)C(NC(=O)C1SCCN1S(=O)(=O)c1cccc(F)c1)C(C3)C2 (configuration not stated) | 76
2) NC(=O)C12CC3CC(C1)C(NC(=O)C1SCCN1S(=O)(=O)c1ccccc1F)C(C3)C2 (stereo in doubt; 8g (E)) | 3
3) NC(=O)C12CC3CC(C1)C(NC(=O)C1SCCN1S(=O)(=O)c1ccccc1)C(C3)C2 (configuration not stated) | 842
4) NC(=O)C12CC3CC(C1)C(NC(=O)C1SCCN1S(=O)(=O)c1ccccc1F)C(C3)C2 (stereo in doubt; 8g) | 4
5) COc1ccc(S(=O)(=O)N2CCSC2C(=O)NC2C3CC4CC2CC(C(N)=O)(C4)C3)cc1 (configuration not stated) | 171

(A) Cc1ccc(S(=O)(=O)N2CCSC2C(=O)NC2C3CC4CC2CC(C(N)=O)(C4)C3)cc1 (configuration not stated)
(B) NC(=O)C12CC3CC(C1)C(NC(=O)C1SCCN1S(=O)(=O)c1ccc(F)cc1)C(C3)C2 (configuration not stated)
Kindly identify which of A and B has the larger recorded IC50 value. Give the label of your selection.
A

----------
Assay info: AUC (0 to 8 hrs) in po dosed rat
Assay type: ADME, organism-based
Design: time < 8 hr, route oral
Run parameters: plasma
Measure name: AUC(0-t) at 8 h (ng·h/mL)
Form entry: value (ng·h/mL) — number only.

NC(=O)C12CC3CC(C1)C(NC(=O)C1SCCN1S(=O)(=O)c1ccccc1F)C(C3)C2 (stereo in doubt; 8g (E)) has a reported AUC(0-t) at 8 h of 1110

----------
Target of assay: 11-beta-hydroxysteroid dehydrogenase 1 (Homo sapiens, UniProt P28845)
Assay info: Inhibition of human 11beta-HSD1 expressed in CHO cells after 3 hrs by HTRF cortisol assay
pIC50: −log10 of the molar value.
Measure name: pIC50

(A) NC(=O)C12CC3CC(C1)C(NC(=O)C1SCCN1S(=O)(=O)c1ccc(Cl)c(Cl)c1)C(C3)C2 (stereo not drawn)
(B) NC(=O)C12CC3CC(C1)C(NC(=O)[C@H]1SCCN1S(=O)(=O)c1ccccc1F)C(C3)C2 (stereo in doubt; 8g (R) (Z))
(C) NC(=O)C12CC3CC(C1)C(NC(=O)[C@@H]1SCCN1S(=O)(=O)c1ccccc1F)C(C3)C2 (stereo in doubt; 8g (S) (E))
Output the entries ranked by pIC50 from maximum down to minimum. Rank them, then answer with their labels in that order.
A, C, B
(A: 8.30, C: 7.92, B: 5.87)

Data credit: ChEMBL document CHEMBL1641412
